- Tested on: CEM cells HIV-1 protection, formazan growth assay
- assay: NCI AIDS Antiviral Assay
- cond: measured here: growth of uninfected CEM cells
The following molecules are listed with their measured IC50 values.
outcome measure: IC50

• O=C(NC(=O)c1c(F)cccc1F)Nc1ncc(Br)cc1Br = > 200 µM
• Cc1c(O)c(C)c2c(C)cn(C(=O)C(C)(C)C)c2c1C = 30.2 µM
• CCC[CH2][Sn]1([CH2]CCC)[S]CC[N]1S(=O)(=O)c1ccc(C)cc1 = 0.0776 µM
• O=c1[nH]nc(-c2ccccc2)n1/N=C/c1ccccc1Cl = 74.1 µM
• COC1OC(CCC2NC(CO)C(O)C(O)C2O)C(O)C(O)C1O (stereo unspecified) = > 200 µM
• COC(=O)C1CC=C(SC(=O)c2ccccc2)N1C(=O)c1ccccc1 (stereo unspecified) = > 200 µM

---

- Tested on: CEM cells HIV-1 protection, formazan growth assay
- assay: NCI AIDS Antiviral Assay
- Method: The ability of compounds to protect human CEM cells from HIV-1 infection is measured as a screen for new compounds capable of inhibiting the HIV virus. Five concentrations of drug were tested on uninfected and infected cells and cell growth was measured using a soluble formazan assay. […] Compounds that provided at least 50% protection were retested. Compounds that provided at least 50% protection on retest were listed as moderately active. […]
The following compounds are listed with their measured EC50 values.
outcome measure: EC50

* COc1ccc(N2C(=O)C3c4[nH]c5ccccc5c4C4CCC(C(C)C)CC4C3C2=O)cc1 (centres undefined) | > 100 µM
* CSc1cc(-c2ccccn2)nc(-c2ccccn2)c1.CSc1cc(-c2ccccn2)nc(-c2ccccn2)c1.[O-][Cl+3]([O-])([O-])[O-].[Zn+2] | > 200 µM
* O=C1C(=Cc2cccs2)C(=O)N(CCc2ccccc2)S(=O)(=O)N1CCc1ccccc1 | > 8.13 µM
* O=C(/C=C\c1ccc(Cl)cc1Cl)c1cccs1 | > 200 µM
* OC1(c2ccccc2)CCCCCCCCC(O)(c2ccccc2)CCCCCCCC1 (centres undefined) | > 200 µM
* O=C(Nc1ccc(CC2=NCCCN2)cc1)c1ccc(C(=O)Nc2ccc(CC3=NCCCN3)cc2)cc1 | > 200 µM
* COc1ccccc1/C=C(\NC(=O)c1ccccc1)c1nc2ccccc2[nH]1 | > 97.7 µM
* O=C(Nc1nc(Cl)nc(Cl)n1)N1CCOCC1 | > 200 µM
* CC1CN2C(=O)[C@@H](OC(=O)Nc3cc([N+](=O)[O-])cc([N+](=O)[O-])c3)[C@H]3CC[C@@H]1[C@]32C (some centres undefined) | > 100 µM

---

- Tested on: CEM cells HIV-1 protection, formazan growth assay
- assay: NCI AIDS Antiviral Assay;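 active = compounds giving half or more protection of infected cells from virus-caused growth loss, again on retest; inactive = the rest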
Classes used: active, inactive

- O=C1NC(=S)NC(=O)C1=Cc1ccc(Cl)c(Cl)c1: inactive
- CN(C)c1nc(=NCc2cccs2)ss1: inactive
- C=C(Cc1ccc2c(c1)OCO2)C(=C)Cc1ccc(O)cc1O: inactive
- c1csc(-c2csc(-c3cccs3)c2)c1: inactive
- C=C1CN(S(=O)(=O)c2ccc(C)cc2)CCCN(C(=O)OC(C)C)CCCN(S(=O)(=O)c2ccc(C)cc2)C1: inactive
- CCOCC=NCC(=O)OCC: inactive
- Brc1ccc(-c2ccc3nnnn3n2)s1: inactive
- CC(C)CCCC(C)[C@H]1CC[C@H]2[C@@H]3CC[C@H]4C[C@@H](CCC=C(c5cc(Cl)c(OCc6cccc(B(O)O)c6)c(C(=O)O)c5)c5cc(Cl)c(OCc6cccc(B(O)O)c6)c(C(=O)O)c5)CC[C@]4(C)[C@H]3CC[C@]12C (stereo partly specified): active
- COc1cc(C2C(C(=O)NCc3ccccc3)=C(C)NC(C)=C2C(=O)NCc2ccccc2)ccc1O: inactive
- N#Cc1nc(C(CO)N(Cc2ccccc2)C(=O)O)oc1N (stereo unspecified): inactive
- CC(O)C1OC(O)C2OC(C)(C)OC12 (stereo unspecified): inactive

---

- System: CEM cells HIV-1 protection, formazan growth assay
- assay: NCI AIDS Antiviral Assay
- cond: measured here: growth of uninfected CEM cells
outcome measure: IC50 (µM)

* C=C1C[C@@H]2O[C@H]3[C@H]4[C@@H](C[C@@H](C)[C@@H](OC(C)=O)[C@H]42)[C@@H](C)CO[C@@]3(C)[C@H](OC(C)=O)C[C@H]1O | 51.3
* C=CCSc1n[nH]c(=S)c2nc[nH]c12 | 129
* O=C(Nc1cccc(Cl)c1)Nc1ccc[nH]c1=O | 25.1
* Cn1c(=O)oc2cc(C(=O)CSC(=S)N3CCCCCC3)ccc21 | 135
* Cc1cc(=O)oc2c3c(cc(OC(C)C)c12)O[C@H](C)[C@@H](C)C3=O | 40.7
* COc1ccccc1/C=C1\NC(=S)N(/C=C2\C(=O)Oc3ccccc3C2=O)C1=O | 81.3
* CCOC(C)OC1CC(n2cc(C)c(=O)[nH]c2=O)OC1CO (stereo not drawn) | 13.2
* O=C(O)c1cccc2cccc(-c3c4ccc(=O)cc-4oc4cc(O)ccc34)c12 | 123
* NC(N)=NS(=O)(=O)c1ccc(NCc2cccc3c(=O)c4ccc(Cl)cc4oc23)cc1 | 2.19
* CCCCCCCCCCCCOS(=O)(=O)O | 195
* C=CCC1(c2ccccc2)Oc2ccccc2-n2cccc2C1=O (stereo not drawn) | 10.5
* COc1cccc(CC2NCCc3c2[nH]c2ccccc32)c1 (stereo not drawn) | 46.8
* O=c1oc2ccccc2c(O)c1C(c1ccc2c(c1)OCO2)N1CCCC1 (stereo not drawn) | 93.3
* O=C(Nc1ccccc1S)c1ccccc1 | 10.5
* O=Nc1ccc(O)cc1Cc1ccccc1 | 3.63
* O=[N+]([O-])c1c(F)c(F)c2c(c1F)N(CCCCCl)c1ccccc1S2 | 7.94
* C=C1CC(Cn2cc(Br)c(=O)[nH]c2=O)(c2ccc(-c3ccccc3)cc2)OC1=O (stereo not drawn) | 0.457

---

- Test system: CEM cells HIV-1 protection, formazan growth assay
- assay: NCI AIDS Antiviral Assay
- cond: measured here: growth of uninfected CEM cells
pIC50: −log10 of the molar value.
outcome measure: pIC50

• CCCCCCCCCCCCC1N=C(N)NC2(CCCO2)C1C(=O)OC (configuration not stated) = 5.24
• C/C=C1\CC(C(=O)OCC)CCCCCCCCCCC1=O (configuration not stated) = 5.07
• COc1ccc2c(c1C)C(=O)C(O)(CC=C(C)C)O2 (configuration not stated) = 4.37
• Cc1cn(C2C=CC(COP(=O)(OCC(=O)c3ccccc3)OCC(=O)c3ccccc3)O2)c(=O)[nH]c1=O (configuration not stated) = 3.96
• COc1ccc(C2CC(c3c(C)nn(-c4ccccc4)c3-c3ccc(C)cc3O)=NN2c2ccccc2)cc1 (configuration not stated) = 4.89
• COc1ccc(/C=C(/C(C)=O)C(=O)c2ccccc2)cc1 = 4.42
• CCOP(=O)(OCC)C(NC(=O)C(C(F)(F)F)C(F)(F)F)c1ccccc1 (configuration not stated) = 4.61
• [Cu+2].[O-]/C(=N\N=C/c1cccc(F)c1)c1ccncc1.[O-]/C(=N\N=C\c1cccc(F)c1)c1ccncc1 = 4.61
• NC(=O)C(N)CC12CC3CC(CC(C3)C1)C2 (configuration not stated) = 4.40
• CC1OC(OC2C(O[C@H]3CC[C@@]4(C)C(=CC[C@H]5[C@@H]6C[C@@H]7O[C@]8(CC[C@@H](C)CO8)[C@@H](C)[C@@H]7[C@@]6(C)CC[C@@H]54)C3)OC(CO)C(O)C2OC2OC(CO)C(O)C(O)C2O)C(O)C(O)C1O (some centres not stated) = 5.93
• C/C=C/C=C\C=C/C(O)CC(OP(=O)(O)O)C(C)(O)/C=C/C1CC=CC(=O)O1 (configuration not stated) = 4.48
• CCCN(CCC)C(=O)c1c(Cl)c2cccnc2n2c(C)cnc12 = 4.15
• C1CCCCC/C2=C(\CCCC1)CSCCCS2 = 4.23
• O=C(/C=C/c1ccc(O)c(O)c1)OCCCc1ccccc1 = 5.30
• Cc1cc(S(=O)(=O)Nc2n[nH]c(-c3ccccn3)n2)c(S)cc1Cl = 5.38
• Cc1cc2c(c(C=Nc3ccccc3O)c1)OC1(C=C2)Oc2ccccc2C(=O)N1C (configuration not stated) = 4.60
• CC1(C)CCCC2CC2CCC(C)(C)C1=O (configuration not stated) = 3.98
• O=C(NC1=NC2C=CC([N+](=O)[O-])=CC2S1)C(=O)Nn1c(=S)[nH]c2ccccc2c1=O (configuration not stated) = 4.13
• COc1cc(-c2cc(OC)c(OC)c3ccc(Br)cc23)c2cc(Br)ccc2c1OC = 3.99
• OC1c2ccccc2C(O)c2c1ccc1c2CN(Cc2ccccc2)CC1 (configuration not stated) = 4.90

---

- Tested on: CEM cells HIV-1 protection, formazan growth assay
- assay: NCI AIDS Antiviral Assay
- cond: measured here: growth of uninfected CEM cells
outcome measure: IC50 (µM)

• CCOP(=S)(OCC)OC(=O)C(C)SSC (stereo not given) (tested in a mixture with another compound) = 95.5
• C=C1CC2(OC1=O)c1ccccc1C=Cc1ccccc12 = 4.57
